Answer each item with its documented pIC50.
target entity: UniProt P32246
run description: CCR1 binding protocol (SPA, [125I]-MIP-1α displacement)
test settings: cell membrane expressing human CCR1, 0.1 nM [125I]-MIP-1α, 4 hours at ambient temperature; read-out: Relative potency (IC50)
Protocol: The following protocol was used to test compounds for CCR1 binding. […] To generate different concentrations of the test compound, compound stocks were prepared using 10 step ½ log dilutions with a high concentration of 10 mM in DMSO and the lowest concentration being DMSO only without compound. […] The assay plate was then centrifuged at 2500 rpm for 2 minutes and incubated for 4 hours at ambient temperature, at which time the raw data was recorded using microbeta. […]
pIC50: −log10 of the molar value.

Short answer please: pIC50, UniProt P32246, entry N#C/N=C(\NC1(c2ccccc2)CC1)N1CCC[C@@H]1c1nnc(CO)n1Cc1ccc(Cl)cc1 [Compound 374] 5.30 to 6.30

Short answer please: pIC50, UniProt P32246, entry Cc1nnc([C@H]2CC(C)(O)CN2C(=O)N[C@H]2CCOc3cc(C(F)(F)F)ccc32)n1Cc1ccc(Cl)cc1 (stereo partly shown) [Compound 526] 6.30 to 7.30

Short answer please: pIC50, UniProt P32246, entry Cc1nc(C(F)(F)F)ccc1NC(=O)N1CCC[C@@H]1c1nnc(C)n1Cc1ccc(F)cc1 [Compound 531] 6.30 to 7.30

Short answer please: pIC50, UniProt P32246, entry Cc1cc(C)c(S(N)(=O)=O)cc1NC(=O)N1CCC[C@@H]1c1nnc(C)n1Cc1ccc(Cl)cc1 [Compound 469] > 7.30

Short answer please: pIC50, UniProt P32246, entry Cc1nc(Cl)c(NC(=O)N2CCC[C@@H]2c2nnc(C)n2Cc2ccc(Cl)cc2)c(Cl)n1 [Compound 178] > 7.30

Short answer please: pIC50, UniProt P32246, entry Cc1nnc([C@H]2CCCN2C(=O)Nc2ncc(Cl)cn2)n1Cc1ccc(Cl)cc1 [Compound 344] 5.30 to 6.30

Short answer please: pIC50, UniProt P32246, entry Cc1cc(C(F)(F)F)ccc1NC(=O)N1CCC[C@@H]1c1nncn1Cc1ccc(Cl)cc1 [Compound 104] > 7.30

----------
Protein target, amino acids: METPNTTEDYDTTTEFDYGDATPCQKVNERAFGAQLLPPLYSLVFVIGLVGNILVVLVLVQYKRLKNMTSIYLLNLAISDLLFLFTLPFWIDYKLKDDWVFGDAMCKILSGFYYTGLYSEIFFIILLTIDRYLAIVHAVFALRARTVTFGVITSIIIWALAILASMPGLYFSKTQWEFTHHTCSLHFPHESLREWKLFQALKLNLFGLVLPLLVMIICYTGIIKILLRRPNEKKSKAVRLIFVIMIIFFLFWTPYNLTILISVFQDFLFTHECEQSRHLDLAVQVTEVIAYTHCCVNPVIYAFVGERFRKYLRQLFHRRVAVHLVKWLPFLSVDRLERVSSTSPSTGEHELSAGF
pIC50: −log10 of the molar value.
Answer each item with its documented pIC50.

For "Cc1nnc([C@H]2CCCN2C(=O)Nc2ccc(Cl)cn2)n1Cc1ccc(Cl)cc1" , what is its reported pIC50? 6.30 to 7.30

For "Cc1nn(C)c(C)c1N/C(=N\C#N)N1CCC[C@@H]1c1nnc(C)n1Cc1ccc(Cl)cc1" , what is its reported pIC50? 6.30 to 7.30

For "Cc1nnc([C@H]2CCCN2C(=O)Nc2cc(C(=O)N(C)C)ccc2F)n1Cc1ccc(Cl)cc1" , what is its reported pIC50? 6.30 to 7.30

For "Cc1nnc([C@H]2CCCN2C(=O)N[C@H]2CCOc3cc(C(F)(F)F)ccc32)n1Cc1ccc(F)cc1" , what is its reported pIC50? > 7.30

For "Cc1c(NC(=O)N2CCC[C@@H]2c2nnc(C)n2Cc2ccc(Cl)cc2)cccc1C(=O)O" , what is its reported pIC50? 6.30 to 7.30

For "Cc1nnc([C@H]2C[C@@H](O)CN2C(=O)NC2(c3ccc(C(F)(F)F)cc3)CC2)n1Cc1ccc(Cl)cc1" , what is its reported pIC50? > 7.30

For "CCc1nnc([C@H]2CCCN2C(=O)Nc2c(C)noc2C)n1Cc1ccc(Cl)cc1" , what is its reported pIC50? 6.30 to 7.30
